molecular target: p300 (Homo sapiens, UniProt Q09472); construct: host or cells: A549 P300 HiBit cells; experiment: P300 degradation, HiBit technology in A549 P300 HiBit cells (2 h); type: cell-based; conditions: A549, A549 P300 HiBit cells, 2 hrs post treatment
Sequence (Q09472 whole entry): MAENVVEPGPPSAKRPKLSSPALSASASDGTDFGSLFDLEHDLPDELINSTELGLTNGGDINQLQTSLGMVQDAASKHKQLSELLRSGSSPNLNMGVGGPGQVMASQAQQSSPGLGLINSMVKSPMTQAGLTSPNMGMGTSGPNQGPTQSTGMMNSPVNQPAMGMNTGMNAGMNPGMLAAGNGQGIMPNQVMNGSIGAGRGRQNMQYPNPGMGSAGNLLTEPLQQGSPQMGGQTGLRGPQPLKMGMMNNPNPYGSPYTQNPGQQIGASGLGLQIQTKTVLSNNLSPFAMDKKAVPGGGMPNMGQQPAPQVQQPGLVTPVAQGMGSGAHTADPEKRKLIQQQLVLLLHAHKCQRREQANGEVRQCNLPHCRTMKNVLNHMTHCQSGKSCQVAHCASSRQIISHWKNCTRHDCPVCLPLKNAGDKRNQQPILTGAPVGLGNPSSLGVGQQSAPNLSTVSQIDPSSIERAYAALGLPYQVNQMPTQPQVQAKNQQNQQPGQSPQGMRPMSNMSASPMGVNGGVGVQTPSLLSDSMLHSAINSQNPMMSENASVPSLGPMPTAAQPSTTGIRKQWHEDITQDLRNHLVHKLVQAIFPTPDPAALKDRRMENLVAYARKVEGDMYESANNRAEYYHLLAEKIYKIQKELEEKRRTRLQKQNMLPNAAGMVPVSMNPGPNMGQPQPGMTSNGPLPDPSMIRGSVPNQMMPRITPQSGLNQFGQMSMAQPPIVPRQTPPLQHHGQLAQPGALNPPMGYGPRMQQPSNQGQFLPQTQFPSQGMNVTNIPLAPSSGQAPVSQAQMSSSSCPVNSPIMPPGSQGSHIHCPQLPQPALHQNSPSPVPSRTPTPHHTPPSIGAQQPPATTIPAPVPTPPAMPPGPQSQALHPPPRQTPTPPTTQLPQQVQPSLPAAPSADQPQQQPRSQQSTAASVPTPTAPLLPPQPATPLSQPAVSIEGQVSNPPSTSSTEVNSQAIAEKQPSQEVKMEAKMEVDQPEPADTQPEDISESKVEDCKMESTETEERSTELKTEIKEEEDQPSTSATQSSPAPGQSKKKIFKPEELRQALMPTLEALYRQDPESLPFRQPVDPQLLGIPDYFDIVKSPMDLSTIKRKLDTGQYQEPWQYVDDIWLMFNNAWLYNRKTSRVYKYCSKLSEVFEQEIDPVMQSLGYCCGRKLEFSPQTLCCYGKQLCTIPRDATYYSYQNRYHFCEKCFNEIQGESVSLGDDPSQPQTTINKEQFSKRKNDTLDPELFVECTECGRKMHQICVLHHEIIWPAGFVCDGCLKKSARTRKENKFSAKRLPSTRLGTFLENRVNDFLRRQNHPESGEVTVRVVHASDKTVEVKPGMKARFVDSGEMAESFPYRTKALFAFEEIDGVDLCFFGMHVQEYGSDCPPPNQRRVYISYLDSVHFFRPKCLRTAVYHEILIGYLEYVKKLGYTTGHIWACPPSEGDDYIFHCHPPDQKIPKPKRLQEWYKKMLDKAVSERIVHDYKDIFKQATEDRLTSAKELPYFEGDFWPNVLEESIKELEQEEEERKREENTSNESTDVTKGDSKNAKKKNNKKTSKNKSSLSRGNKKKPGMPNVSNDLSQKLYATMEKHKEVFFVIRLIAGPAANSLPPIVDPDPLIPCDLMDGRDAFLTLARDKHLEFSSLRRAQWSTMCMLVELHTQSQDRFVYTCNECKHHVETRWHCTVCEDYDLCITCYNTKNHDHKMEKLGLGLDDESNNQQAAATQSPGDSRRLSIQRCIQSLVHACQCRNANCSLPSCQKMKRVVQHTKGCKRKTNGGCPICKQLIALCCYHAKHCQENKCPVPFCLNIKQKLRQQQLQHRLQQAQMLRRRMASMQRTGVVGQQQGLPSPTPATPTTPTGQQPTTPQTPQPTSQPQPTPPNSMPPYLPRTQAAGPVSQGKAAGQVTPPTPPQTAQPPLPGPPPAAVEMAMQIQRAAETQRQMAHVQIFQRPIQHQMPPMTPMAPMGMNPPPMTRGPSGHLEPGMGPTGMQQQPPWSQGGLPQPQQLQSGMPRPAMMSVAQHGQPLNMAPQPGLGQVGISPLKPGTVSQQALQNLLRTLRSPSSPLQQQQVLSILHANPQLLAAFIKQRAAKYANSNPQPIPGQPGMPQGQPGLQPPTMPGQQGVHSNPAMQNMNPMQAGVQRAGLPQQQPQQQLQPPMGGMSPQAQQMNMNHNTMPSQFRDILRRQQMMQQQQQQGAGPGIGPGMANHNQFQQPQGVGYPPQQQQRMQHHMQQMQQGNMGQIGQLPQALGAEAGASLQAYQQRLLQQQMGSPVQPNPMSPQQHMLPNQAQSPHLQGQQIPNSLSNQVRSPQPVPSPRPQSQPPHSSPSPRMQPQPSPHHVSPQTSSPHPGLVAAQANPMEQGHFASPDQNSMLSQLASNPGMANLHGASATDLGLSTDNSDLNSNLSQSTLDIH
measurement-kind: Dmax

Provide measured Dmax value, entry: CCn1c(=O)n(C)c2ccc(-c3cccc4cc(-c5ccc(C(=O)NCC#Cc6cc7c(C8CCC(=O)NC8=O)cccc7o6)nc5)ncc34)cc21 (stereo not drawn) [Example A267]
> 80%

Provide measured Dmax value, entry: CCN(c1cnc(-c2cnc(C(=O)NCC#Cc3ccc4occ(C5CCC(=O)NC5=O)c4c3)c(C)c2)nc1)c1cc(C(C)C)c2c(c1)n(C)c(=O)n2C (stereo not drawn) [Example A70]
> 80%

Further cases:
Provide measured Dmax value, entry: Cn1c(=O)n(C)c2c(N3CCC(C)(O)CC3)cc(-c3cccc4cc(-c5ccc(C(=O)NCC#Cc6cccc(NC7CCC(=O)NC7=O)c6)nc5)ncc34)cc21 (stereo not drawn) [Example A271]
> 80%

====

target: p300 (Homo sapiens); construct: host or cells: A549 P300 HiBit cells; experiment: P300 degradation, HiBit technology in A549 P300 HiBit cells (2 h); type: cell-based; conditions: A549, A549 P300 HiBit cells, 2 hrs post treatment
measurement-kind: Dmax

Below, each entry is followed by its recorded Dmax result.
State Dmax (p300 (Homo sapiens)) of Cc1cc2c(N3CCCc4nc(-c5ccc(C(=O)NCC#Cc6ccc7occ(C8CCC(=O)NC8=O)c7c6)nc5)ncc43)cc(C3CCOCC3)cc2n(C)c1=O (stereo not drawn) .
> 80%

State Dmax (p300 (Homo sapiens)) of CC(C)c1cc(-c2cccc3cc(-c4ccc(C(=O)NCC#Cc5ccc6c(c5)ncn6C5CCC(=O)NC5=O)nc4)ncc23)cc2c1n(C)c(=O)n2C (stereo not drawn) .
< 20%

State Dmax (p300 (Homo sapiens)) of CC(C)c1cc(N2CCCc3nc(-c4ccc(C(=O)NCC#Cc5ccc6occ(C7CCC(=O)NC7=O)c6c5)nc4)ncc32)cc2c1n(C)c(=O)n2C (stereo not drawn) .
> 80%

Further cases:
State Dmax (p300 (Homo sapiens)) of COc1nn(C2CCC(=O)NC2=O)c2cc(C#CCNC(=O)c3ccc(-c4cc5cccc(-c6cc(C(C)C)c7c(c6)n(C)c(=O)n7C)c5cn4)cn3)ccc12 (stereo not drawn) .
> 80%

State Dmax (p300 (Homo sapiens)) of Cc1cc2c(N3CCOc4cc(-c5ccc(C(=O)NCC#Cc6ccc7occ(C8CCC(=O)NC8=O)c7c6)nc5)c(F)cc43)cc(N3CC4(COC4)C3)cc2n(C)c1=O (stereo not drawn) .
> 80%

====

Reported DC50 values are given for each entry in this list.
target: p300 (Homo sapiens); construct: host or cells: A549 P300 HiBit cells; assay: P300 degradation, HiBit technology in A549 P300 HiBit cells (2 h); type: cell-based; conditions: A549 P300 HiBit cells, 2 hrs post treatment

Below, each entry is followed by its recorded DC50 result.
Provide measured DC50 value, entry: Cc1cc(-c2cc3cccc(-c4ccc5c(c4)n(C)c(=O)n5C)c3cn2)cnc1C(=O)NCC#Cc1ccc2occ([C@@H]3CCC(=O)NC3=O)c2c1
1 to 9.9 nM

Provide measured DC50 value, entry: Cc1cc2c(N3CCCc4nc(-c5ccc(C(=O)NCC#Cc6cc7c(C8CCC(=O)NC8=O)cccc7o6)nc5)ncc43)nc(N3CCC(C)(O)CC3)cc2n(C)c1=O (stereo not drawn)
1 to 9.9 nM

Let us move to another entry and its DC50.
Provide measured DC50 value, entry: CCc1cc(-c2cccc3cc(-c4ccc(C(=O)NCC#Cc5cc6c(cnn6C6CCC(=O)NC6=O)cc5C)nc4)ncc23)c2cc(C)c(=O)n(C)c2c1 (stereo not drawn)
10 to 99 nM

====

target: p300 (Homo sapiens, UniProt Q09472); construct: host or cells: A549 P300 HiBit cells; assay: P300 degradation, HiBit technology in A549 P300 HiBit cells (2 h); assay type: cell-based; conditions: A549 P300 HiBit cells, 2 hrs post treatment
Reported DC50 values are given for each entry in this list.

Below, each entry is followed by its recorded DC50 result.
Provide measured DC50 value, entry: Cc1cc(-c2ccc(N(C)c3cc(C(C)C)c4c(c3)n(C)c(=O)n4C)cc2C(F)F)cnc1C(=O)NCC#Cc1cccc(NC2CCC(=O)NC2=O)c1 (stereo not drawn)
10 to 99 nM

Provide measured DC50 value, entry: Cn1c(=O)n(C)c2c(N3CC4CCC(C3)O4)nc(-c3cccc4cc(-c5ccc(C(=O)NCC#Cc6ccc7occ(C8CCC(=O)NC8=O)c7c6)nc5)ncc34)cc21 (stereo not drawn)
1 to 9.9 nM

Provide measured DC50 value, entry: Cc1cc(-c2cc3cccc(-c4ccc5c(c4)n(C)c(=O)n5C)c3cn2)cnc1C(=O)NCC#Cc1ccc2occ([C@H]3CCC(=O)NC3=O)c2c1
1 to 9.9 nM

Further cases:
Provide measured DC50 value, entry: CC(C)c1cc(-c2cccc3cc(-c4ccc(C(=O)NCC#Cc5ccc6scc(C7CCC(=O)NC7=O)c6c5)nc4)ncc23)cc2c1n(C)c(=O)n2C (stereo not drawn)
10 to 99 nM

Provide measured DC50 value, entry: Cc1cc(-c2ncc3c(n2)OCCN3c2cc3c(c(N4CCOCC4)n2)n(C)c(=O)n3C)cnc1C(=O)NCC#Cc1ccc2occ(C3CCC(=O)NC3=O)c2c1 (stereo not drawn)
10 to 99 nM

Provide measured DC50 value, entry: Cc1cc(N2CCCc3nc(-c4ccc(C(=O)NCC#Cc5cc6c(C7CCC(=O)NC7=O)cccc6o5)nc4)ncc32)c2cc(C)c(=O)n(C)c2n1 (stereo not drawn)
1 to 9.9 nM

====

molecular target: CBP (Homo sapiens); construct: host or cells: A549 CBP HiBit cells; assay: CBP degradation, HiBit technology in A549 CBP HiBit cells (24 h); format: cell-based; details: 24 hrs post treatment
Sequence (Q92793 whole entry): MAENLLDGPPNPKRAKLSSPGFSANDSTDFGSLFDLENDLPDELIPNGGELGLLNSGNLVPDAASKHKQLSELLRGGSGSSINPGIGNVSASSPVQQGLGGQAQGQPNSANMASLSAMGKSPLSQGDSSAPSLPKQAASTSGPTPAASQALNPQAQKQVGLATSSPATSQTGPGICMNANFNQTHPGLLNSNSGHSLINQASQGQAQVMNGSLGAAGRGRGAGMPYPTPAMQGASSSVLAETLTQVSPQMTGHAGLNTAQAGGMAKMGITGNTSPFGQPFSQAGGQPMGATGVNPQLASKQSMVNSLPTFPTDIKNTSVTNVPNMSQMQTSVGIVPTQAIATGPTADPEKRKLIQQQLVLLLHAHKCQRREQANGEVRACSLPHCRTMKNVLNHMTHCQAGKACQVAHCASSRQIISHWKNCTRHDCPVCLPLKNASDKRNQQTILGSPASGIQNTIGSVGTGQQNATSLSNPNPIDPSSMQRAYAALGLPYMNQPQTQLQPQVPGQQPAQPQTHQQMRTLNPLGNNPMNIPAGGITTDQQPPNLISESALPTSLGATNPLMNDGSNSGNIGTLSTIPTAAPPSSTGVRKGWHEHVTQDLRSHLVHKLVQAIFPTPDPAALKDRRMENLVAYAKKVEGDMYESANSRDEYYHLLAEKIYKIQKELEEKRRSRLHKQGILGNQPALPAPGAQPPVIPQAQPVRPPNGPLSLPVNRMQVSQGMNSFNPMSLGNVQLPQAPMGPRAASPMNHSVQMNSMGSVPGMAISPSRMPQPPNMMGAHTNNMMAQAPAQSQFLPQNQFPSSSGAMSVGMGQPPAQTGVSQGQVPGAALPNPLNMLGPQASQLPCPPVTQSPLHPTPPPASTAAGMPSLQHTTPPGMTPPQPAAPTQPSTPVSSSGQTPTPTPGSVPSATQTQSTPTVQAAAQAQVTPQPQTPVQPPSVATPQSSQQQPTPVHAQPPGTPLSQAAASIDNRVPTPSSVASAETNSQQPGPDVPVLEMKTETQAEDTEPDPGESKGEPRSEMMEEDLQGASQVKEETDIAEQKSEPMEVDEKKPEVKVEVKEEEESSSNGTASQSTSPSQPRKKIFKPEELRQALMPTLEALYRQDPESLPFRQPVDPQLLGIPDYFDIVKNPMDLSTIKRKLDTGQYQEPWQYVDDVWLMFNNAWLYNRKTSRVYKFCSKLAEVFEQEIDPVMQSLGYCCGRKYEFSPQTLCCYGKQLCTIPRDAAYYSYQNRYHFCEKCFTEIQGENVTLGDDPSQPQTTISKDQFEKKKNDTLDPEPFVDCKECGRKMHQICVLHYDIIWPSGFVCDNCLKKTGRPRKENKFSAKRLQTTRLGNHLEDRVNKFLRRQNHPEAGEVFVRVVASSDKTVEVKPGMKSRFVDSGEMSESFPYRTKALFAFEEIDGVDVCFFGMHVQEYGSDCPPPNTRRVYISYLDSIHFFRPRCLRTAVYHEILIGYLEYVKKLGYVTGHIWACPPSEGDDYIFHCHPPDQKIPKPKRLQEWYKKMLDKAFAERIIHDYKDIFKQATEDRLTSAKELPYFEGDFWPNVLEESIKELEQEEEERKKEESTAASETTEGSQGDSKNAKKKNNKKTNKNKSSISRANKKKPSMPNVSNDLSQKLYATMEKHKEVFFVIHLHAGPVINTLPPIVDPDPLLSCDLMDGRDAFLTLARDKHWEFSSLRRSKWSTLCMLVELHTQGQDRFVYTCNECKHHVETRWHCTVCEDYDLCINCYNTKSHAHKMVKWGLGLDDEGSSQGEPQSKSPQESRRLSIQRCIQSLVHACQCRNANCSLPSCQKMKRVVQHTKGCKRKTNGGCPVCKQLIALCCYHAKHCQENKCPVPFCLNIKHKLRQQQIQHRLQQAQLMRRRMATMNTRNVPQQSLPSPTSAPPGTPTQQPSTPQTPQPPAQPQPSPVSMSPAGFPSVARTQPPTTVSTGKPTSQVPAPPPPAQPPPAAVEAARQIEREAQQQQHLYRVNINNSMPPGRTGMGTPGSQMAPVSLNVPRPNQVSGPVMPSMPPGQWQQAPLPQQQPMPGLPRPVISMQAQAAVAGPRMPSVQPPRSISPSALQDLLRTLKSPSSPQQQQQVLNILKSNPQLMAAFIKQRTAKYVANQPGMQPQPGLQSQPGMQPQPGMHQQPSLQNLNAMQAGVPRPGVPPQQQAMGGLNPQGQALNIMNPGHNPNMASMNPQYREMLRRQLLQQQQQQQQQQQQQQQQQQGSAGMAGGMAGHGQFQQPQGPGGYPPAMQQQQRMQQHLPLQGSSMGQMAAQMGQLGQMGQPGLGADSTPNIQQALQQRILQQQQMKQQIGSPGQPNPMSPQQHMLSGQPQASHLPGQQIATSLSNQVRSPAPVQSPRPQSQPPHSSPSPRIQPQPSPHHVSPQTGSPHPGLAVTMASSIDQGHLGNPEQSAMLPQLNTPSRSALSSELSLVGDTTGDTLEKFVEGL
Reported DC50 values are given for each entry in this list.

Provide measured DC50 value, entry: Cn1c(=O)n(C)c2cc(-c3cccc4cc(-c5ccc(C(=O)NCC#Cc6ccc7nnn(C8CCC(=O)NC8=O)c7c6)nc5)ncc34)ccc21 (stereo not drawn)
> 1 µM

Provide measured DC50 value, entry: Cc1cc2c(N3CCCc4nc(-c5ccc(C(=O)NCC#Cc6cc7c(C8CCC(=O)NC8=O)cccc7o6)nc5)ncc43)cc(C3CC4CCC(C3)O4)nc2n(C)c1=O (stereo not drawn)
0.1 to 0.999 µM

Let us move to another entry and its DC50.
Provide measured DC50 value, entry: Cc1cc2c(N3CCCc4nc(-c5ccc(C(=O)NCC#Cc6cc7c(C8CCC(=O)NC8=O)cccc7o6)nc5)ncc43)cccc2n(C)c1=O (stereo not drawn)
0.1 to 0.999 µM

====

Target: p300 (Homo sapiens)
Construct: host or cells: A549 P300 HiBit cells
Experiment: P300 degradation, HiBit technology in A549 P300 HiBit cells (2 h)
Format: cell-based
Conditions: A549 P300 HiBit cells, 2 hrs post treatment
Method: p300 and CBP degradation potency and Dmax were determined using in cell western (ICW) assay technology in H1299 cells or HiBit technology in A549 HiBit cells. A549 P300 HiBit and A549 CBP HiBit cells were plated in separate 384-well, TC treated, white-opaque, flat-bottomed microplate. […] After incubation, luminescent signal of each plate was measured using the Envision instrument (Perkin Elmer).
Reported DC50 values are given for each entry in this list.

State DC50 (p300 (Homo sapiens)) of Cc1cc2c(N3CCN(C)c4cc(-c5ccc(C(=O)NCC#Cc6ccc7occ(C8CCC(=O)NC8=O)c7c6)nc5)ncc43)cc(C3CCOCC3)cc2n(C)c1=O (stereo not drawn) .
< 1 nM

Let us move to another entry and its DC50.
State DC50 (p300 (Homo sapiens)) of Cn1c(=O)n(C)c2c(N3CC[Si](C)(C)CC3)nc(-c3cccc4cc(-c5ccc(C(=O)NCC#Cc6ccc7occ(C8CCC(=O)NC8=O)c7c6)nc5)ncc34)cc21 (stereo not drawn) .
10 to 99 nM

====

biological target: p300 (Homo sapiens); construct: host or cells: A549 P300 HiBit cells; test: P300 degradation, HiBit technology in A549 P300 HiBit cells (2 h); format: cell-based; settings: A549, A549 P300 HiBit cells, 2 hrs post treatment
measurement-kind: Dmax

Provide measured Dmax value, entry: Cc1cc(-c2cc3c(cn2)N(c2cc(C(C)C)c4c(c2)n(C)c(=O)n4C)CCC3)cnc1C(=O)NCC#Cc1ccn2ncc(C3CCC(=O)NC3=O)c2c1 (centres unmarked) [Example A238]
> 80%

Provide measured Dmax value, entry: Cc1cc(-c2ncc(N(C)c3cc(C4CCOCC4)c4c(c3)n(C)c(=O)n4C)c(N(C)C)n2)cnc1C(=O)NCC#Cc1cc2c(C3CCC(=O)NC3=O)cccc2o1 (centres unmarked) [Example A225]
< 20%

Provide measured Dmax value, entry: Cc1cc(N2CCN(C)c3cc(-c4ccc(C(=O)NCC#Cc5cc6c(C7CCC(=O)NC7=O)nccc6o5)nc4)ncc32)cc2c1n(C)c(=O)n2C (centres unmarked) [Example A209]
> 80%

Provide measured Dmax value, entry: Cn1c(=O)n(C)c2cc(N3CC(C)(C)Oc4nc(-c5ccc(C(=O)NCC#Cc6cc7c(C8CCC(=O)NC8=O)cccc7o6)nc5)ncc43)ccc21 (centres unmarked) [Example A264]
> 80%

Provide measured Dmax value, entry: Cn1c(=O)n(C)c2c(F)cc(N3CCOc4nc(-c5ccc(C(=O)NCC#Cc6cc7c(C8CCC(=O)NC8=O)cccc7o6)nc5)ncc43)cc21 (centres unmarked) [Example A265]
20 to 39%

Provide measured Dmax value, entry: CCN(CC)c1cc2c(cc(C)c(=O)n2C)c(N2CCCc3nc(-c4ccc(C(=O)NCC#Cc5cc6c(C7CCC(=O)NC7=O)nccc6o5)nc4)ncc32)n1 (centres unmarked) [Example B25]
> 80%

Provide measured Dmax value, entry: Cc1cc2c(N3CCCc4nc(-c5ccc(C(=O)NCC#Cc6ccc7occ([C@H]8CCC(=O)NC8=O)c7c6)nc5)ncc43)cc(C3CCOCC3)cc2n(C)c1=O [Example B54]
> 80%

Provide measured Dmax value, entry: CCc1cc(-c2cccc3cc(-c4ccc(C(=O)NCC#Cc5ccc6cnn(C7CCC(=O)NC7=O)c6c5)nc4)ncc23)c2cc(C)c(=O)n(C)c2c1 (centres unmarked) [Example B5]
> 80%

Provide measured Dmax value, entry: CC(C)c1cc(-c2cccc3cc(-c4ccc(C(=O)NCC#Cc5cc6c(ccn6C6CCC(=O)NC6=O)cn5)nc4)ncc23)cc2c1n(C)c(=O)n2C (centres unmarked) [Example A22]
20 to 39%

Provide measured Dmax value, entry: Cn1c(=O)n(C)c2cc(N3CCOc4nc(-c5ccc(C(=O)NCC#Cc6ccn7ncc(C8CCC(=O)NC8=O)c7c6)nc5)ncc43)ccc21 (centres unmarked) [Example A246]
40 to 59%

Provide measured Dmax value, entry: Cc1cc(N2CCOc3nc(-c4ccc(C(=O)NCC#Cc5cc6c(C7CCC(=O)NC7=O)nccc6o5)nc4)ncc32)cc2c1n(C)c(=O)n2C (centres unmarked) [Example A160]
> 80%
